All figures here come from patent US9260500B2.

- system under test: human Y2 receptor (Homo sapiens)
- Construct: expressed in transfected cells; membrane fraction
- Sequence (P49146 1-381): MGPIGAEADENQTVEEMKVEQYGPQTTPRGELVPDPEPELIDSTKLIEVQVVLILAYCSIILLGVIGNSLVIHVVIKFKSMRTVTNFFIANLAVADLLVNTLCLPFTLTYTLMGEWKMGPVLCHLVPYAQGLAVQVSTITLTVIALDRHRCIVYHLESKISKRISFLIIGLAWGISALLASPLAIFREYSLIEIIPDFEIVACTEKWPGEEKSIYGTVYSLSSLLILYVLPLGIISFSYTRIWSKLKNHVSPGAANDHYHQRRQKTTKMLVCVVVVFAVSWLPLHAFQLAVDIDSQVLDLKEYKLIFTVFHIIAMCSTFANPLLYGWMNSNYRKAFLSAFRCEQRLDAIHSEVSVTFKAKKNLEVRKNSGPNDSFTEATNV
- measurement description: Human Y2 Receptor G Protein Binding Assay (GBA), [35S]GTPγS
- Type: biochemical
- experimental context: EC50 of test compound/EC50 of PYY(3-36) (PYY3-36 taken as 1), hY2R/CHO membrane fraction
Non-standard residues stand in square brackets, D forms with d. *: point of attachment. 1Nal = N[C@@H](Cc1cccc2ccccc12)C(=O)O; 4Pal = N[C@@H](Cc1ccncc1)C(=O)O; Cha = N[C@@H](CC1CCCCC1)C(=O)O; Isobutyryl = CC(C)C(=O)*; Abu = CC[C@H](N)C(=O)O; Aib = CC(C)(N)C(=O)O; Bz = O=C(c1ccccc1)*
# GBA EC50 Ratio per entry
Returns: the value as a bare number; no unit string appended.

Requested read-out: GBA EC50 Ratio. Entry: Benzoyl-[Cha27,36, Nal(1)28, Aib31]-PYY(25-36) (Bz-RH[Cha][1Nal]NL[Aib]TRQR[Cha]-NH2; SMILES CC(C)C[C@H](NC(=O)[C@H](CC(N)=O)NC(=O)[C@H](Cc1cccc2ccccc12)NC(=O)[C@H](CC1CCCCC1)NC(=O)[C@H](Cc1c[nH]cn1)NC(=O)[C@H](CCCNC(=N)N)NC(=O)c1ccccc1)C(=O)NC(C)(C)C(=O)N[C@H](C(=O)N[C@@H](CCCNC(=N)N)C(=O)N[C@@H](CCC(N)=O)C(=O)N[C@@H](CCCNC(=N)N)C(=O)N[C@@H](CC1CCCCC1)C(N)=O)[C@@H](C)O) [compound No. 63]
25

Sample Isobutanoyl-[Abu26, Cha27,36, Pya(4)28, Aib31]-PYY(25-36) (Isobutyryl-R[Abu][Cha][4Pal]NL[Aib]TRQR[Cha]-NH2; SMILES CC[C@H](NC(=O)[C@H](CCCNC(=N)N)NC(=O)C(C)C)C(=O)N[C@@H](CC1CCCCC1)C(=O)N[C@@H](Cc1ccncc1)C(=O)N[C@@H](CC(N)=O)C(=O)N[C@@H](CC(C)C)C(=O)NC(C)(C)C(=O)N[C@H](C(=O)N[C@@H](CCCNC(=N)N)C(=O)N[C@@H](CCC(N)=O)C(=O)N[C@@H](CCCNC(=N)N)C(=O)N[C@@H](CC1CCCCC1)C(N)=O)[C@@H](C)O) [compound No. 83] — what was its GBA EC50 Ratio?
22

Query: GBA EC50 Ratio; subject: Benzoyl-[Cha27,36, Ile28, Pya(4)31]-PYY(25-36) (Bz-RH[Cha]INL[4Pal]TRQR[Cha]-NH2; SMILES CC[C@H](C)[C@H](NC(=O)[C@H](CC1CCCCC1)NC(=O)[C@H](Cc1c[nH]cn1)NC(=O)[C@H](CCCNC(=N)N)NC(=O)c1ccccc1)C(=O)N[C@@H](CC(N)=O)C(=O)N[C@@H](CC(C)C)C(=O)N[C@@H](Cc1ccncc1)C(=O)N[C@H](C(=O)N[C@@H](CCCNC(=N)N)C(=O)N[C@@H](CCC(N)=O)C(=O)N[C@@H](CCCNC(=N)N)C(=O)N[C@@H](CC1CCCCC1)C(N)=O)[C@@H](C)O) [compound No. 71]
8.5
